Data provenance is PubChem BioAssay.

- assay system: Calmodulin-1 (Homo sapiens) (UniProt P0DP23)
- measurement notes: CALM1 binders on microarrays, EGTA buffer, profiling panel, biochemical, small-molecule microarray, Cy5-labelled CALM1 (AID 1111);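 also: labelled calmodulin applied in Tris saline Tween buffer holding calcium plus EGTA and DTT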
- measurement parameters: Cy5-CALM1 binding fluorescence, higher = more signal
Rule: true (1) for composite z-score not less than 0.2, false (0) for anything less.

Please review the entries below; each comes with its answer.
CC(C)C[C@@H]1NC(=O)[C@@H]2C[C@H](C(=O)NCCCCCNC(=O)CS)[C@H](c3cccc(OCCO)c3)N2C1=O	true (1)
O=c1n(-c2ccccc2)c(=O)n2n1CC(COc1ccccc1)=C1[C@@H](CCc3ccccc3)OB(O)C[C@@H]12	false (0)
C=C(COC)C(=O)CC[C@H](OC(=O)c1cccnc1)c1cccc(OCCO)c1	false (0)
COC(=O)C(CC#Cc1ccc2c(c1)[C@]1(C(=O)N2)[C@H](c2ccccc2OCCO)N2[C@H](c3ccccc3)[C@H](c3ccccc3)OC(=O)[C@H]2[C@@H]1C(=O)N1CCCCCCC1)C(=O)OC	true (1)
CCOC(=O)C[C@H]1[C@H](OC(=O)c2ccc(-c3ccccc3)cc2)[C@@H](NC(=O)C2CCCCC2)c2cc(OCCCO)ccc2N1C(=O)c1ccc2ccccc2n1	true (1)
C=C(CCCC)/C(=C/C[C@H](OC(=O)c1ccncc1)c1ccc(CO)o1)c1cnc2ccccc2c1	true (1)

Say whether "CCCNC(=O)[C@@]1(Sc2ccc(C)cc2)CC(=O)N(Cc2cc(C(F)(F)F)cc(C(F)(F)F)c2)[C@@H]1c1ccc(CO)cc1I" shows composite z-score of 0.2 or more.
true (1)

Say whether "O=C1O[C@H](c2ccccc2)[C@H](c2ccccc2)N2[C@H]1[C@@H](C(=O)NC[C@H](O)c1ccccc1)[C@]1(C(=O)Nc3ccc(C#CC4(O)CCCCCC4)cc31)[C@H]2c1ccc(O)cc1" shows composite z-score of 0.2 or more.
true (1)

Say whether "[N-]=[N+]=NCc1ccccc1C[C@]1(C(=O)NCc2ccccc2)N=C(c2ccc(OCCCO)cc2)O[C@H]1c1ccccc1" shows composite z-score of 0.2 or more.
true (1)

====

- Test system: Lefty1
- measurement notes: Lefty1 binders on small-molecule microarrays, primary screen, biochemical, small-molecule microarray, 635/667 nm fluorescence (AID 1139)
- measurement parameters: small-molecule microarray binding, fluorescence 635/667; higher = more signal
The entries below are paired with their reported composite z-score.

CC(C)(C)OC(=O)CC[C@@]1(C(=O)NCc2ccccc2)N=C(c2ccc(OCCCO)cc2)O[C@@H]1c1ccccc1CN=[N+]=[N-]	0.148
C=C(C(=O)CC[C@H](OC(C)=O)c1ccc(CO)o1)C(C)C	0.299
C=CCN1C(=O)[C@@]2(O[C@@H](CCn3cc(CCO)nn3)[C@H]([Si](C)(C)c3ccc(OC)cc3)[C@H]2C)c2cc(NC(=O)c3ccc(OC)cc3)ccc21	1.02
CCCNC(=O)[C@@]1(Sc2ccc(C)cc2)CC(=O)N(Cc2cc(C(F)(F)F)cc(C(F)(F)F)c2)[C@@H]1c1ccc(CO)cc1I	-0.487
O=C1N(CCS(=O)(=O)c2ccccc2)Cc2ccccc2[C@@H]2OC(c3ccc(OCCCO)cc3)=N[C@]12Cc1ccccc1	1.1

With those in mind, consider the next compound.
Input C=CCC(OC(C)=O)[C@@H]1[C@@H](N(Cc2cccc3ccccc23)C(=O)Cc2ccc(OC)cc2)c2cc(OCCCO)ccc2N1C(=O)Cc1ccc(OC)cc1 (stereo partly drawn) . Output composite z-score: -0.392

====

- assay system: Calmodulin-1 (Homo sapiens) (UniProt P0DP23)
- measurement notes: CALM1 binders on microarrays, EGTA buffer, profiling panel, biochemical, small-molecule microarray, Cy5-labelled CALM1 (AID 1111);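 also: labelled calmodulin applied in Tris saline Tween buffer holding calcium plus EGTA and DTT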
- measurement parameters: Cy5-CALM1 binding fluorescence, higher = more signal
measure name: composite z-score

See these solved cases before continuing.
O=C1c2ccccc2[C@@]2(Cc3ccccc3N(CC(F)(F)F)C2=O)[C@H](c2ccc(CO)cc2)N1Cc1ccccc1C(F)(F)F	-0.434
CC(C)(C)OC(=O)CC[C@@]12N=C(c3ccc(OCCCO)cc3)O[C@@H]1c1ccccc1CN(Cc1ccccc1)C2=O	0.927
C=C[C@H](OC)[C@@H](OC(=O)Nc1ccc(OC)cc1)c1ccc(OC)c(O)c1	-1.07

Calmodulin-1 (Homo sapiens) (UniProt P0DP23) composite z-score of "CO[C@H]1O[C@H](CO)[C@@H](OC(=O)Nc2ccccc2)[C@H](OC(=O)Nc2ccccc2-c2ccccc2)[C@@H]1OC(=O)Nc1ccccc1-c1ccccc1" is 1.95

Calmodulin-1 (Homo sapiens) (UniProt P0DP23) composite z-score of "COc1ccc([Si](C)(C)[C@H]2[C@H](CCO)O[C@@]3(C(=O)N(Cc4ccc(N5C(=O)c6cccc7cccc5c67)cc4)c4ccccc43)[C@@H]2C)cc1" is 1.57

Calmodulin-1 (Homo sapiens) (UniProt P0DP23) composite z-score of C=CCC(OC(C)=O)[C@@H]1[C@@H](N(Cc2cc3ccccc3o2)C(=O)c2ccc(-c3ccccc3)cc2)c2cc(OCCCO)ccc2N1C(=O)c1ccc(-c2ccccc2)cc1 (some centres not stated) is 0.0671

Calmodulin-1 (Homo sapiens) (UniProt P0DP23) composite z-score of "CCCC[C@@H](O)C1=C(C)C[C@H]2C(=O)N(C)C(=O)[C@H]2[C@H]1CO" is -0.409

====

The entries below are paired with their reported composite z-score.
- Test system: Fibrinogen (Alexa647-labelled)
- measurement notes: fibrinogen binders on compound microarrays, profiling panel, artefact control for SMM control-protein annotation, biochemical, small-molecule microarray, 635/667 nm fluorescence (AID 1131);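 also: z-score merges 667 nm fluorescence with per-spot signal-to-noise over triplicate slides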
- measurement parameters: fibrinogen-A647 binding fluorescence, higher = more signal
Response field accepts a number only; no unit should be typed.

O=C(N1CCCCC1)[C@@]1(Cc2ccccc2)N=C(c2ccc(OCCCO)cc2)O[C@H]1c1ccccc1	0.124
CC(C)[Si](C#C[Si](C(C)C)(C(C)C)C(C)C)(O[C@H](C)c1cn([C@H](C)c2ccccc2)nn1)C(C)C	0.179
CC(C)(C)OC(=O)CC[C@]1(C(=O)NCc2ccccc2)N=C(c2ccc(OCCCO)cc2)O[C@H]1c1ccccc1N=[N+]=[N-]	1.01
COC(=O)[C@@]1(CCC(=O)OC(C)(C)C)COC(c2ccc(OCCCO)cc2)=N1	-2.51
COC(=O)C1=CC(CCCO)=CC(C2CC2)N(Cc2cc3c(cc2Br)OCO3)C=C1C(=O)OC (stereo not drawn)	0.931

Input C=CCC(OC(C)=O)[C@@H]1[C@@H](N(Cc2ccc(-c3cccc(C(F)(F)F)c3)o2)C(=O)c2ccc(-c3ccccc3)cc2)c2cc(OCCCO)ccc2N1C(=O)Cc1ccc(OC)cc1 (stereo partly drawn) . Output composite z-score: -0.407

Input "O=c1n(-c2ccccc2)c(=O)n2n1CC(COc1ccccc1)=C1[C@@H](CCc3ccccc3)OB(O)C[C@@H]12" . Output composite z-score: 0.501

Input "CO[C@H]1O[C@H](CO)[C@@H](OC(=O)Nc2ccccc2)[C@H](OC(=O)Nc2ccccc2-c2ccccc2)[C@@H]1OC(=O)Nc1ccccc1-c1ccccc1" . Output composite z-score: 0.976

====

- measurement notes: small-molecule microarray binders of probe aShh, primary screen, biochemical, biotinylated probe, 635/667 nm fluorescence (AID 1114);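 also: probe is biotin-labelled aShh protein from a stem cell growth factor screen; measures binding of labelled protein to compounds printed on the slide; score merges feature fluorescence at 667 nm with signal-to-noise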
- measurement parameters: higher = more signal
Each record's composite z-score is compared with label 0 = under -0.01, label 1 = from -0.01 up to 0.3, label 2 = 0.3 and over to give its class.

C=C(CCCC)/C(=C/C[C@H](OC(=O)c1ccncc1)c1ccc(CO)o1)c1cnc2ccccc2c1	label 1
COCCCNC(=O)[C@@]1(Cc2ccccc2CN=[N+]=[N-])COC(c2ccc(OCCCO)cc2)=N1	label 2
Cc1ccc(N2C(=O)c3ccccc3[C@](C)(C(=O)NC3CC3)[C@@H]2c2ccc(CO)cc2)nc1	label 0

Which class does "CO[C@H]1O[C@H](CO)[C@@H](OC(=O)CCc2ccccc2)[C@@H]2OC(=O)[C@H](Cc3ccccc3)C/C=C/C[C@@H](Cc3ccccc3)C(=O)O[C@@H]12" fall in?
label 0

Which class does "C=C(COC)/C(=C/C[C@H](OC(C)=O)c1cccc(OCCO)c1)c1cc(C(=O)OC)ccc1OC" fall in?
label 0

====

The entries below are paired with their reported composite z-score.
- measurement notes: COS7 lysate on small-molecule microarray, probe aHis, 635 nm (AID 1123);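 also: z-score combines 667nm fluorescence intensity with signal-to-noise per printed compound spot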
- measurement parameters: COS7 cell lysate, fluorescence, higher = more signal

See these solved cases before continuing.
C=CCOC(=O)[C@H]1[C@@H]2C(=O)O[C@@H](c3ccccc3)[C@@H](c3ccccc3)N2[C@@H](c2ccc(OCCOC(=O)[C@H]3C[C@H]4C(=O)N5CCC[C@H]5C(=O)N4[C@H]3c3cccc(OCCO)c3)cc2)[C@]12C(=O)Nc1ccccc12	2.31
C=CCNC(=O)[C@H]1[C@@H]2C(=O)O[C@@H](c3ccccc3)[C@@H](c3ccccc3)N2[C@@H](c2ccc(OCCO)cc2)[C@]12C(=O)Nc1ccc(C#CCCO)cc12	1.86
C=C(COC)C(=O)CC[C@H](OC(=O)c1ccccc1-c1ccccc1C(=O)O)c1ccccc1OCCO	0.125

Input "COC(=O)C(CC#Cc1ccc2c(c1)[C@]1(C(=O)N2)[C@H](C(N)=O)[C@H]2C(=O)O[C@H](c3ccccc3)[C@H](c3ccccc3)N2[C@@H]1c1ccc(O)cc1)C(=O)OC" . Output composite z-score: 1.15

Input "NC(=O)NCC#Cc1ccc2c(c1)[C@]1(C(=O)N2)[C@H](c2ccc(OCCO)cc2)N2[C@H](c3ccccc3)[C@H](c3ccccc3)OC(=O)[C@H]2[C@@H]1C(=O)Nc1nc2ccccc2s1" . Output composite z-score: 0.966
